Listing of entries alongside the reported RLU.
Target: human TAS2R1 (Homo sapiens)
Construct: expressed in transfected cells; host or cells: HEK293T-Gα16gust44
Sequence (Q9NYW7 1-299): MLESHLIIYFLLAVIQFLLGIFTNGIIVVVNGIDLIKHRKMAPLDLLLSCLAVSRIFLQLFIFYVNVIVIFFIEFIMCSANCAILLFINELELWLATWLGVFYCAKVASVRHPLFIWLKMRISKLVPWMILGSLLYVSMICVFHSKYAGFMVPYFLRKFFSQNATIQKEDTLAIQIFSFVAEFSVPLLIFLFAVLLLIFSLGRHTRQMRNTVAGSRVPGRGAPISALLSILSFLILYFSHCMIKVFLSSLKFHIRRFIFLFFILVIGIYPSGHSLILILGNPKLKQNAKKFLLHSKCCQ
Experiment: Calcium imaging assay (FLIPR), HEK293T-Gα16gust44 cells transfected with human TAS2R1
Type: cell-based
Details: Time 143.562 s
Supply the numeric figure in RLU, leaving out any unit text.

Worked cases, RLU given:
Give its RLU value. Item: "C[C@H](CCC(=O)O)[C@H]1CC[C@H]2[C@@H]3[C@H](O)C[C@@H]4C[C@H](O)CC[C@]4(C)[C@H]3C[C@H](O)[C@]12C"
326.335

Give its RLU value. Item: "C[C@H](CCC(=O)O)[C@H]1CC[C@H]2[C@@H]3[C@H](O)C[C@@H]4C[C@H](O)CC[C@]4(C)[C@H]3CC[C@]12C"
528.401

Give its RLU value. Item: "C[C@H](CCC(=O)O)[C@H]1CC[C@H]2[C@@H]3[C@@H](O)C[C@@H]4C[C@H](O)CC[C@]4(C)[C@H]3CC[C@]12C"
203.668

New cases:
Give its RLU value. Item: "C[C@H](CCC(=O)O)[C@H]1CC[C@H]2[C@@H]3CC[C@@H]4C[C@H](O)CC[C@]4(C)[C@H]3CC[C@]12C"
785.521

----------
Target: human TAS2R1 (Homo sapiens, UniProt Q9NYW7)
Construct: expressed in transfected cells; host or cells: HEK293T-Gα16gust44
Test: Calcium imaging assay (FLIPR), HEK293T-Gα16gust44 cells transfected with human TAS2R1
Assay type: cell-based
Details: Time 74.796 s
readout type: RLU (RLU)
Supply the numeric figure in RLU, leaving out any unit text.

Worked cases, RLU given:
Give its RLU value. Item: C[C@H](CCC(=O)O)[C@H]1CC[C@H]2[C@@H]3[C@H](O)C[C@@H]4C[C@H](O)CC[C@]4(C)[C@H]3C[C@H](O)[C@]12C [Cholic Acid, cholic acid]
721.996

Give its RLU value. Item: C[C@H](CCC(=O)O)[C@H]1CC[C@H]2[C@@H]3[C@@H](O)C[C@@H]4C[C@H](O)CC[C@]4(C)[C@H]3CC[C@]12C [Ursodeoxycholic Acid, ursodeoxycholic acid]
611.038

New cases:
Give its RLU value. Item: C[C@H](CCC(=O)O)[C@H]1CC[C@H]2[C@@H]3[C@H](O)C[C@@H]4C[C@H](O)CC[C@]4(C)[C@H]3CC[C@]12C [Chenodeoxycholic Acid, chenodeoxycholic acid]
844.188

Give its RLU value. Item: C[C@H](CCC(=O)O)[C@H]1CC[C@H]2[C@@H]3CC[C@@H]4C[C@H](O)CC[C@]4(C)[C@H]3CC[C@]12C [Lithocholic Acid, lithocholic acid]
876.325

----------
Biological target: human TAS2R1 (Homo sapiens)
Construct: expressed in transfected cells; host or cells: HEK293T-Gα16gust44
Test: Calcium imaging assay (FLIPR), HEK293T-Gα16gust44 cells transfected with human TAS2R1
Format: cell-based
Settings: Time 48.781 s
readout type: RLU (RLU)
Supply the numeric figure in RLU, leaving out any unit text.

Worked cases, RLU given:
For the record "C[C@H](CCC(=O)O)[C@H]1CC[C@H]2[C@@H]3CC[C@@H]4C[C@H](O)CC[C@]4(C)[C@H]3C[C@H](O)[C@]12C" , what value of RLU is listed for human TAS2R1 (Homo sapiens)?
359.225

For the record "C[C@H](CCC(=O)NCCS(=O)(=O)O)[C@H]1CC[C@H]2[C@@H]3[C@H](O)C[C@@H]4C[C@H](O)CC[C@]4(C)[C@H]3C[C@H](O)[C@]12C" , what value of RLU is listed for human TAS2R1 (Homo sapiens)?
364.135

For the record "C[C@H](CCC(=O)NCCS(=O)(=O)O)[C@H]1CC[C@H]2[C@@H]3CC[C@@H]4C[C@H](O)CC[C@]4(C)[C@H]3CC[C@]12C" , what value of RLU is listed for human TAS2R1 (Homo sapiens)?
599.496

Could you now look at the following compound, please?
For the record "C[C@H](CCC(=O)NCC(=O)O)[C@H]1CC[C@H]2[C@@H]3[C@H](O)C[C@@H]4C[C@H](O)CC[C@]4(C)[C@H]3C[C@H](O)[C@]12C" , what value of RLU is listed for human TAS2R1 (Homo sapiens)?
570.694

----------
Target: human TAS2R4 (Homo sapiens)
Construct: expressed in transfected cells; host or cells: HEK293T-Gα16gust44
Sequence (Q9NYW5 1-299): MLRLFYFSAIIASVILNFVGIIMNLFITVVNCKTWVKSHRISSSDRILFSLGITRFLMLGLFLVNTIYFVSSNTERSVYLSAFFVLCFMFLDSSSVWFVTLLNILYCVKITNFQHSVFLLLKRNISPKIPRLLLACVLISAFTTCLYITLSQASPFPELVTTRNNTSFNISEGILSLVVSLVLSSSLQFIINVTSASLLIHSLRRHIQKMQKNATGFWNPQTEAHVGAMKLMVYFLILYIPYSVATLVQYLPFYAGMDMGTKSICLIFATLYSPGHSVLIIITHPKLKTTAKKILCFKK
Experiment: Calcium imaging assay (FLIPR), HEK293T-Gα16gust44 cells transfected with human TAS2R4; also: test concentration or dose not given here
Type: cell-based
Settings: Time (s) 305.547
Listing of entries alongside the reported RLU, fluorescence trace.
Supply the numeric figure in RLU, leaving out any unit text.

Worked cases, RLU, fluorescence trace given:
Give its RLU, fluorescence trace value. Item: "C[C@H](CCC(=O)O)[C@H]1CC[C@H]2[C@@H]3CC[C@@H]4C[C@H](O)CC[C@]4(C)[C@H]3C[C@H](O)[C@]12C"
380.1

Give its RLU, fluorescence trace value. Item: "C[C@H](CCC(=O)NCCS(=O)(=O)O)[C@H]1CC[C@H]2[C@@H]3CC[C@@H]4C[C@H](O)CC[C@]4(C)[C@H]3CC[C@]12C"
140.647

Give its RLU, fluorescence trace value. Item: "C[C@H](CCC(=O)O)[C@H]1CC[C@H]2[C@@H]3[C@H](O)C[C@@H]4C[C@H](O)CC[C@]4(C)[C@H]3C[C@H](O)[C@]12C"
250.223

Give its RLU, fluorescence trace value. Item: "C[C@H](CCC(=O)O)[C@H]1CC[C@H]2[C@@H]3[C@@H](O)C[C@@H]4C[C@H](O)CC[C@]4(C)[C@H]3CC[C@]12C"
132.691

Give its RLU, fluorescence trace value. Item: "C[C@H](CCC(=O)NCC(=O)O)[C@H]1CC[C@H]2[C@@H]3[C@H](O)C[C@@H]4C[C@H](O)CC[C@]4(C)[C@H]3C[C@H](O)[C@]12C"
119.109

Could you now look at the following compound, please?
Give its RLU, fluorescence trace value. Item: "C[C@H](CCC(=O)NCCS(=O)(=O)O)[C@H]1CC[C@H]2[C@@H]3[C@H](O)C[C@@H]4C[C@H](O)CC[C@]4(C)[C@H]3C[C@H](O)[C@]12C"
192.603

----------
Biological target: human TAS2R1 (Homo sapiens)
Construct: expressed in transfected cells; host or cells: HEK293T-Gα16gust44
Test: Calcium imaging assay (FLIPR), HEK293T-Gα16gust44 cells transfected with human TAS2R1
Format: cell-based
Conditions: calcium trace, sheet TAS2R1; Time 305.547 s
readout type: RLU (RLU)
Supply the numeric figure in RLU, leaving out any unit text.

Worked cases, RLU given:
Give its RLU value. Item: C[C@H](CCC(=O)O)[C@H]1CC[C@H]2[C@@H]3CC[C@@H]4C[C@H](O)CC[C@]4(C)[C@H]3C[C@H](O)[C@]12C [Deoxycholic Acid, deoxycholic acid]
138.546

Give its RLU value. Item: C[C@H](CCC(=O)NCC(=O)O)[C@H]1CC[C@H]2[C@@H]3[C@H](O)C[C@@H]4C[C@H](O)CC[C@]4(C)[C@H]3C[C@H](O)[C@]12C [Glycocholic Acid, glycocholic acid]
58.5113

Give its RLU value. Item: C[C@H](CCC(=O)NCCS(=O)(=O)O)[C@H]1CC[C@H]2[C@@H]3CC[C@@H]4C[C@H](O)CC[C@]4(C)[C@H]3CC[C@]12C [Taurolithocholic Acid, taurolithocholic acid]
-184.97

Could you now look at the following compound, please?
Give its RLU value. Item: C[C@H](CCC(=O)NCCS(=O)(=O)O)[C@H]1CC[C@H]2[C@@H]3[C@H](O)C[C@@H]4C[C@H](O)CC[C@]4(C)[C@H]3C[C@H](O)[C@]12C [Taurocholic Acid, taurocholic acid]
-3.144

FYI, the data here is from paper PMC10247784.
